Hey, just so you know, these numbers are from the supplement of paper PMC10724198.

Each item that follows carries a reported protein stability index.
- System: Saccharomyces cerevisiae
- Assay Text: protein stability index of tFT-peptide fusion (C-terminal peptide) (PSI (0-1 scale)); higher = more stable (slower turnover)
- Condition Description: genetic background: das1 deletion; temperature: 30 C
The answer should be a number; do not append a unit.

Would you please look over these solved cases?
INSERT INTO results (ordered_residues, target_under_test, measured) VALUES
  ('SRFRTNIAFITQ [YJL015C C-terminal 12 aa]', 'Saccharomyces cerevisiae', 0.71),
  ('LIMELAVNSQSN [SNF1 C-terminal 12 aa]', 'Saccharomyces cerevisiae', 0.681),
  ('KDFQVNKEIKPY [SIR4 C-terminal 12 aa]', 'Saccharomyces cerevisiae', 0.713),
  ('GDVSNLPYLDEL [QCR2 C-terminal 12 aa]', 'Saccharomyces cerevisiae', 0.694);

Briefly, protein stability index measured for DTVKILTELFNL [SEC53 C-terminal 12 aa] : 0.707

Briefly, protein stability index measured for GCVKMYKFDLND [MET30 C-terminal 12 aa] : 0.713

Briefly, protein stability index measured for VIPHRGKKPVQN [AUS1 C-terminal 12 aa] : 0.681

Briefly, protein stability index measured for ENAEKQRTLKKN [RIA1 C-terminal 12 aa] : 0.693

* * *

- Tested on: Saccharomyces cerevisiae
- Assay Text: protein stability index of tFT-peptide fusion (C-terminal peptide) (PSI (0-1 scale)); higher = more stable (slower turnover)
- Condition Description: genetic background: das1 deletion; temperature: 37 C
Label Criterion met when protein stability index is at or above 0.7; anything below gets Criterion not met.

INSERT INTO measurements (ordered_residues, classification) VALUES
  ('GLRLRCPLLLSL', 'Criterion not met'),
  ('HCLGWCFSRLSS', 'Criterion met'),
  ('FALVSLSFALVE', 'Criterion not met'),
  ('RGLLLKILIASG', 'Criterion not met'),
  ('LAVVCIHAVSSF', 'Criterion not met'),
  ('ECCKRFCCRFVA', 'Criterion met');

Next:
Inquiry: // inclusive: protein stability index at least 0.7? input: `NFSALECKVQLT`
Reply text: Criterion met

* * *

- System: Saccharomyces cerevisiae
- Assay Text: protein stability index of tFT-peptide fusion (C-terminal peptide) (PSI (0-1 scale)); higher = more stable (slower turnover)
- Condition Description: genetic background: cdc34-1; temperature: 37 C
Each item that follows carries a reported protein stability index.
The answer should be a number; do not append a unit.

INSERT INTO results (ordered_residues, measured) VALUES
  ('LESYGLRDSTSG', 0.641);

Briefly, protein stability index measured for `VLFVRGHTLWLM` : 0.612

Briefly, protein stability index measured for `WGRGYRWRIWDV` : 0.708

Briefly, protein stability index measured for `TFVLREYVWVMS` : 0.443

Briefly, protein stability index measured for `VFYWVGVLCGWG` : 0.298

* * *

- Tested on: Saccharomyces cerevisiae
- Assay Text: protein stability index of tFT-peptide fusion (C-terminal peptide) (PSI (0-1 scale)); higher = more stable (slower turnover)
- Condition Description: genetic background: wild type; temperature: 30 C
Each item that follows carries a reported protein stability index.
The answer should be a number; do not append a unit.

INSERT INTO results (ordered_residues, measured) VALUES
  ('DCRFIIFYCVMV', 0.454),
  ('FLSRLVGFYFVV', 0.312),
  ('EVGTMALISCSV', 0.288),
  ('RQINEKKKLYMI', 0.102),
  ('CFWLLSSLLLFL', 0.416);

Briefly, protein stability index measured for `IVEVNCILMWIF` : 0.369

* * *

- Test system: Saccharomyces cerevisiae
- Assay Text: protein stability index of tFT-peptide fusion (C-terminal peptide) (PSI (0-1 scale)); higher = more stable (slower turnover)
- Condition Description: genetic background: wild type; temperature: 30 C
Observation Type: protein stability index
The answer should be a number; do not append a unit.

Would you please look over these solved cases?
INSERT INTO assay_data (ordered_residues, target_under_test, measured) VALUES
  ('SSPPPSAHPLPS', 'Saccharomyces cerevisiae', 0.693),
  ('PALPPPPLLSSS', 'Saccharomyces cerevisiae', 0.705),
  ('AAGDLGNKCGWG', 'Saccharomyces cerevisiae', 0.68),
  ('SPAAGGRVGVRR', 'Saccharomyces cerevisiae', 0.715);

The measured protein stability index that `VAYSKWIGEIRD` showed for Saccharomyces cerevisiae is 0.71

The measured protein stability index that `PLPPPPPPIPLT` showed for Saccharomyces cerevisiae is 0.702

The measured protein stability index that `PPIPLPPLAPPL` showed for Saccharomyces cerevisiae is 0.699

The measured protein stability index that `SSSVFFFLRRFR` showed for Saccharomyces cerevisiae is 0.698

The measured protein stability index that `AGMIRKGQYRGG` showed for Saccharomyces cerevisiae is 0.68

The measured protein stability index that `TERPMAVESRAW` showed for Saccharomyces cerevisiae is 0.686

The measured protein stability index that `VGVCCLSGDGFV` showed for Saccharomyces cerevisiae is 0.689

The measured protein stability index that `SRSPRSRSRHES` showed for Saccharomyces cerevisiae is 0.698

The measured protein stability index that `IVVRAGGCSVGW` showed for Saccharomyces cerevisiae is 0.695

The measured protein stability index that `YLSLPTSISLSS` showed for Saccharomyces cerevisiae is 0.693

The measured protein stability index that `GVSWVGGRVFGG` showed for Saccharomyces cerevisiae is 0.696

* * *

- Test system: Saccharomyces cerevisiae
- Assay Text: protein stability index of tFT-peptide fusion (C-terminal peptide) (PSI (0-1 scale)); higher = more stable (slower turnover)
- Condition Description: genetic background: wild type; temperature: 30 C
Observation Type: protein stability index

INSERT INTO results (ordered_residues, measured) VALUES
  ('LLLGLPLDVGDS', 0.708),
  ('LVGFGGGGDGVV', 0.693),
  ('SRPPPFFPPASP', 0.682),
  ('KRKRSERRRGKP', 0.693),
  ('GGGGGWVRWASG', 0.689);

Pending sequence:
Briefly, protein stability index measured for `PPPLCSIPPILL` : 0.705

* * *

- Test system: Saccharomyces cerevisiae
- Assay Text: protein stability index of tFT-peptide fusion (C-terminal peptide) (PSI (0-1 scale)); higher = more stable (slower turnover)
- Condition Description: genetic background: cdc34-1; temperature: 37 C
Observation Type: protein stability index

Would you please look over these solved cases?
INSERT INTO assay_data (ordered_residues, measured) VALUES
  ('FGLVAYPLWYIS', 0.504),
  ('LFLEVCFFRLYF', 0.511),
  ('SLRICACMTVSW', 0.3);

Pending sequence:
The measured protein stability index that `GRWGGYVGREWG` showed for Saccharomyces cerevisiae is 0.497

* * *

Each item that follows carries a reported protein stability index.
- Test system: Saccharomyces cerevisiae
- Assay Text: protein stability index of tFT-peptide fusion (C-terminal peptide) (PSI (0-1 scale)); higher = more stable (slower turnover)
- Condition Description: genetic background: wild type; temperature: 30 C
The answer should be a number; do not append a unit.

Would you please look over these solved cases?
INSERT INTO results (ordered_residues, observation_type, measured) VALUES
  ('HRPPPPPSPSHL', 'protein stability index', 0.686),
  ('ACSPPPPPTLLF', 'protein stability index', 0.686),
  ('PSHTPNHTGYPD', 'protein stability index', 0.681),
  ('PSPPPPPPHPAP', 'protein stability index', 0.694),
  ('LSPLHSPCLPCP', 'protein stability index', 0.679);

Pending sequence:
Briefly, protein stability index measured for `RSVIEHKMRKKR` : 0.682

* * *

- System: Saccharomyces cerevisiae
- Assay Text: protein stability index of tFT-peptide fusion (C-terminal peptide) (PSI (0-1 scale)); higher = more stable (slower turnover)
- Condition Description: genetic background: das1 deletion; temperature: 37 C
Observation Type: protein stability index
The answer should be a number; do not append a unit.

Would you please look over these solved cases?
INSERT INTO results (ordered_residues, measured) VALUES
  ('PPSPVPPIWYLA', 0.753),
  ('SSVGLFVLLCLV', 0.503),
  ('SLCPFLCILCFG', 0.402),
  ('LVVFGLVLSLLL', 0.507),
  ('SLCVVIFFSSIT', 0.468);

Briefly, protein stability index measured for `TVVIFLCSYITT` : 0.298

Briefly, protein stability index measured for `LRQKIIYWWLWL` : 0.613

Briefly, protein stability index measured for `VVWFCGFFFVMV` : 0.509

* * *

- Test system: Saccharomyces cerevisiae
- Assay Text: protein stability index of tFT-peptide fusion in wild type (PSI (0-1 scale)); higher = more stable (slower turnover)
- Condition Description: genetic background: wild type
Observation Type: protein stability index
The answer should be a number; do not append a unit.

Would you please look over these solved cases?
INSERT INTO results (ordered_residues, measured) VALUES
  ('LVVYLSDVACIN', 0.458),
  ('KKHKKGQKLKIN', 0.114),
  ('ARWRVGLWRGGS', 0.672);

Briefly, protein stability index measured for `VRGAVGNWRLVG` : 0.14
